Test system: Danio rerio Tg(wt1b:EGFP) embryo, pronephros
Assay: pronephric angle neck segment to proximal convoluted tubule (mean of left and right), fold change vs DMSO control; higher = larger pronephric angle
Conditions: 25 µM; exposure: 24-48 hpf
Structures can show the parent of a compound that is named as a salt.
Each entry below carries its reported pronephric angle neck segment.
Quick one: just the number, no unit, thanks!

Record request: pronephric angle neck segment value, item CC(=O)/N=c1/sc(S(N)(=O)=O)nn1C [Methazolamide]
1.02

Record request: pronephric angle neck segment value, item O=C(O)/C=C/c1ccc(Cn2ccnc2)cc1 [Ozagrel hydrochloride]
0.98

Record request: pronephric angle neck segment value, item `CC(=O)Nc1ccc(O)cc1`
0.983

Record request: pronephric angle neck segment value, item `C[C@H](O)C(=O)Nc1c(I)c(C(=O)NC(CO)CO)c(I)c(C(=O)NC(CO)CO)c1I`
1.01

Record request: pronephric angle neck segment value, item `N[C@@H](Cc1ccc(O)c(O)c1)C(=O)O`
0.972

Hey, just so you know, these numbers are from the supplement of paper PMC7366291.
